Hey, just so you know, these numbers are from ChEMBL document CHEMBL1154775.

The reader will find reported pIC50 values listed item by item below.
molecular target: Delta-type opioid receptor (Homo sapiens, UniProt P41143); test: Displacement of [3H]DPDPE from delta opioid receptor expressed in CHO cells after 90 mins by scintillation counting
Sequence (P41143 whole entry): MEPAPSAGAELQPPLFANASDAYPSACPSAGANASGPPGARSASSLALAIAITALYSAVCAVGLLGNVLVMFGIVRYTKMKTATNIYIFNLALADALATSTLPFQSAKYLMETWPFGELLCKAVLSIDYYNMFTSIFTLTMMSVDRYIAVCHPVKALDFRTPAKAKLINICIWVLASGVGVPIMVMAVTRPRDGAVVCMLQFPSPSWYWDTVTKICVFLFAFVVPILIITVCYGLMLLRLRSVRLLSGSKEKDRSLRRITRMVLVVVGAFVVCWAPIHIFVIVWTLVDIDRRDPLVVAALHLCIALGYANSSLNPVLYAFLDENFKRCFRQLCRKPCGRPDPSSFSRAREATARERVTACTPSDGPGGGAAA
Numbered stars: 1 amine (or outer) side, 2 acyl side, 3 side chain; on linkers, the order of the positions; unused ones are H or OH. Square brackets hold non-standard residues; d marks the D form. Peptide text beside a SMILES is read from it. X6 = O=C(CBr)N(CCCC[C@@H](N[*:1])C(=O)[*:2])C(=O)CBr; X1 = O=C(CBr)N(CCC[C@@H](N[*:1])C(=O)[*:2])C(=O)CBr; X7 = CC(=O)N(CCCC[C@@H](N[*:1])C(=O)[*:2])C(C)=O; X8 = CC(=O)N(CCC[C@@H](N[*:1])C(=O)[*:2])C(C)=O; X5 = O=C([C@@H](CCCCN(N=C=S)N=C=S)N[*:1])[*:2]; X4 = O=C([C@@H](CCCN(N=C=S)N=C=S)N[*:1])[*:2]
Reminder that pIC50 means the negative base-10 logarithm of the concentration expressed in mol/L.

The following molecules have reported results that may help.
- molecule: "N[C@@H](Cc1ccc(O)cc1)C(=O)N[C@H](CCCN(N=C=S)N=C=S)C(=O)N[C@@H](Cc1ccccc1)C(=O)NCC(=O)N[C@@H](Cc1ccc(O)cc1)C(=O)N1CCC[C@H]1C(=O)N[C@@H](CO)C(=O)O (H-Y[X4]FGYPS-OH)"
  recorded-number: 7.62
- molecule: "CC(=O)N(CCC[C@@H](NC(=O)[C@@H](N)Cc1ccc(O)cc1)C(=O)N[C@@H](Cc1ccccc1)C(=O)NCC(=O)N[C@@H](Cc1ccc(O)cc1)C(=O)N1CCC[C@H]1C(=O)N[C@@H](CO)C(=O)O)C(C)=O (H-Y[X8]FGYPS-OH)"
  recorded-number: 6.57
- molecule: "N[C@@H](Cc1ccc(O)cc1)C(=O)N[C@H](CCCN(C(=O)CBr)C(=O)CBr)C(=O)N[C@@H](Cc1ccccc1)C(=O)NCC(=O)N[C@@H](Cc1ccc(O)cc1)C(=O)N1CCC[C@H]1C(=O)N[C@@H](CO)C(=O)O (H-Y[X1]FGYPS-OH)"
  recorded-number: 6.47
- molecule: "CC(=O)N(CCCC[C@@H](NC(=O)[C@@H](N)Cc1ccc(O)cc1)C(=O)N[C@@H](Cc1ccccc1)C(=O)NCC(=O)N[C@@H](Cc1ccc(O)cc1)C(=O)N1CCC[C@H]1C(=O)N[C@@H](CO)C(=O)O)C(C)=O (H-Y[X7]FGYPS-OH)"
  recorded-number: 6.36
- molecule: "N[C@@H](Cc1ccc(O)cc1)C(=O)N[C@H](CCCCN(N=C=S)N=C=S)C(=O)N[C@@H](Cc1ccccc1)C(=O)NCC(=O)N[C@@H](Cc1ccc(O)cc1)C(=O)N1CCC[C@H]1C(=O)N[C@@H](CO)C(=O)O (H-Y[X5]FGYPS-OH)"
  recorded-number: 7.01

Turning to the following molecule.
Entry N[C@@H](Cc1ccc(O)cc1)C(=O)N[C@H](CCCCN(C(=O)CBr)C(=O)CBr)C(=O)N[C@@H](Cc1ccccc1)C(=O)NCC(=O)N[C@@H](Cc1ccc(O)cc1)C(=O)N1CCC[C@H]1C(=O)N[C@@H](CO)C(=O)O (H-Y[X6]FGYPS-OH) under Delta-type opioid receptor (Homo sapiens, UniProt P41143) had pIC50 of 6.42
